- Tested on: HUVEC
- test name: Cytotoxicity against Homo sapiens (human) HUVEC cells after 48 hr by LDH assay
- Assay type: cell-based
observable: Activity

compound=COc1ccc(/C=C2\COc3cc(OC)ccc3C2=O)cc1 endpoint_result="Dose-dependent effect"
compound=COc1ccc2c(c1)OC/C(=C\c1ccc(OC)c(OC)c1)C2=O endpoint_result="Dose-dependent effect"
compound=COc1ccc2c(c1)OC/C(=C\c1ccc(Cl)cc1)C2=O endpoint_result="Dose-dependent effect"
compound="CN(C)c1ccc2c(c1)OC(N)=C(C#N)C2c1cccc([N+](=O)[O-])c1 (stereo not drawn)" endpoint_result="Dose-dependent effect"
compound=COc1ccc2c(c1)OC/C(=C\c1cc(OC)c(O)c(OC)c1)C2=O endpoint_result="Dose-dependent effect"
compound=COc1ccc2c(c1)OC/C(=C\c1ccc(C(F)(F)F)cc1)C2=O endpoint_result="Dose-dependent effect"
compound="CN(C)c1ccc2c(c1)OC(N)=C(C#N)C2c1cccc(C(F)(F)F)c1 (stereo not drawn)" endpoint_result="Dose-dependent effect"
compound=COc1ccc2c(c1)OC/C(=C\c1ccc(F)cc1)C2=O endpoint_result="Dose-dependent effect"
compound=COc1ccc2c(c1)OC/C(=C\c1ccccc1OC)C2=O endpoint_result="Dose-dependent effect"
compound=COc1ccc2c(c1)OC/C(=C\c1ccc(O)cc1)C2=O endpoint_result="Dose-dependent effect"
compound=COc1ccc2c(c1)OC/C(=C\c1ccc(O)c(O)c1)C2=O endpoint_result="Dose-dependent effect"
compound=CCCOc1ccc2c(c1)OC/C(=C\c1ccc(O)c(O)c1)C2=O endpoint_result="Dose-dependent effect"
compound=COc1ccc2c(c1)OC/C(=C\c1ccc(Cl)cc1Cl)C2=O endpoint_result="Dose-dependent effect"
